Can you tell me % Efficacy, in vitro Kasumi cell killing assay for the items I'm about to list?
Molecular target: CD117 on Kasumi-1 cells and on primary human CD34+ bone marrow cells (human), P10721
Assay: cell-based or functional assay
Express your answer in %, writing the number without its unit.

For this binder ( CK6 S239C-DM (antibody, V domains shown, here or on the partner: duocarmycin (DM) conjugated, Fc modification S239C, DAR 1.65) VH: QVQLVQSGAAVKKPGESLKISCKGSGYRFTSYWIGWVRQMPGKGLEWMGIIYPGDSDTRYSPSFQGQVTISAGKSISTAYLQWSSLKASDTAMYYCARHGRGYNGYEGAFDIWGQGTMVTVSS VL: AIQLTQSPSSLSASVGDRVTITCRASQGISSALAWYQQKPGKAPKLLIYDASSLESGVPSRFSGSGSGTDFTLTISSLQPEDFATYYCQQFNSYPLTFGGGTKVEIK ), measured % Efficacy, in vitro Kasumi cell killing assay is 0

For this binder ( CK6 S239C-PNU (antibody, V domains shown, here or on the partner: PNU (DNA topoisomerase I/II inhibitor) conjugated, Fc modification S239C (printed S2390 in Table 4), DAR 1.4) VH: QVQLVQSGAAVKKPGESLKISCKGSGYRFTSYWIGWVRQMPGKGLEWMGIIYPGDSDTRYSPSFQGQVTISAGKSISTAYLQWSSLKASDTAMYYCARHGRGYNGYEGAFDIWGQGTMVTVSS VL: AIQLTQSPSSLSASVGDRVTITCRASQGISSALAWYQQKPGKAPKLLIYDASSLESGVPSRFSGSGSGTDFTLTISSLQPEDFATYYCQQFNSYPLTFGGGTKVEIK ), measured % Efficacy, in vitro Kasumi cell killing assay is 85.7

For this binder ( CK6 S239C-PBD (antibody, V domains shown, here or on the partner: PBD (DNA cross linker) conjugated, Fc modification S239C, DAR 1.7) VH: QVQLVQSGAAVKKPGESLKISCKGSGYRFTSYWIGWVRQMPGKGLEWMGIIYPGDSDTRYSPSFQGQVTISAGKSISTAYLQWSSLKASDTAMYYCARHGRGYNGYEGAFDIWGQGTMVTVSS VL: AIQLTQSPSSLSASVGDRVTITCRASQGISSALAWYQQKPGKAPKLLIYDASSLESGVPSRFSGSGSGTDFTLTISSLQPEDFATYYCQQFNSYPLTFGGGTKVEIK ), measured % Efficacy, in vitro Kasumi cell killing assay is 60.7

For this binder ( CK6 S239C-D4 (antibody, V domains shown, here or on the partner: calicheamicin (D4) conjugated, Fc modification S239C, DAR 1.72) VH: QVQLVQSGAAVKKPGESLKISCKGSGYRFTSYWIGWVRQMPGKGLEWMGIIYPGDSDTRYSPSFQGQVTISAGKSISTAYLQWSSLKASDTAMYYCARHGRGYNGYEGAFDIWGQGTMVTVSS VL: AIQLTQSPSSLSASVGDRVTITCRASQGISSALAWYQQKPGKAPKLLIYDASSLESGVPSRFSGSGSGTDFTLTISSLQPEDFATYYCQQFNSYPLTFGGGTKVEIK ), measured % Efficacy, in vitro Kasumi cell killing assay is 0

For this binder ( CK6-SET0207 (antibody, V domains shown, here or on the partner: SET0207 payload ('Non-cleavable natural') conjugated, Fc modification D265C H435A, DAR 2.0) VH: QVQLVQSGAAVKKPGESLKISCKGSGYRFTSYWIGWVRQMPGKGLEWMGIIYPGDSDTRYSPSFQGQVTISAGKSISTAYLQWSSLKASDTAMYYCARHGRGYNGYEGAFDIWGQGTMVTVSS VL: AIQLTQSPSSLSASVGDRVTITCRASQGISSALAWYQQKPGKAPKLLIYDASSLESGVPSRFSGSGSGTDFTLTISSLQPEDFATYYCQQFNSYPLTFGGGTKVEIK ), measured % Efficacy, in vitro Kasumi cell killing assay is 0

Data credit: patent US20220177577A1
